- Protocol Text: Clearance in dog at 0.5 mg/kg, po
- Assay type: ADME, organism-based, Canis lupus familiaris
- Assay Conditions: in vivo
Quantity Name: CL/F
Kindly write the number and append the unit.

query: Entry CC(C)c1ccc(CC(=O)N[C@H](C)c2ccc(OCC(F)(F)F)cn2)cc1 [SUVECALTAMIDE] : reported CL/F = ?
result: 0.4 mL/min/kg

====

Task for the reader: assign each of the following compounds its reported half-life.
- Protocol Text: Half-life in rat
- Format: ADME
- Assay Conditions: in vivo
Field format: number, assumed h, no unit text.

query: // half-life lookup, key: `N#Cc1ccc([C@@]2(C3CC3)c3cc(Cl)ccc3NC(=O)N2CC(F)(F)F)cc1`
result: 5.9

query: Form field: reported half-life of `C[C@@H](NC(=O)Cc1ccc(C2CC2)cc1)c1ccc(OCC(F)(F)F)cn1`
result: 1.5
